# pIC50 measurements, system: porcine pancreas lipase (Sus scrofa, UniProt P00591)
# Sequence (P00591 whole entry): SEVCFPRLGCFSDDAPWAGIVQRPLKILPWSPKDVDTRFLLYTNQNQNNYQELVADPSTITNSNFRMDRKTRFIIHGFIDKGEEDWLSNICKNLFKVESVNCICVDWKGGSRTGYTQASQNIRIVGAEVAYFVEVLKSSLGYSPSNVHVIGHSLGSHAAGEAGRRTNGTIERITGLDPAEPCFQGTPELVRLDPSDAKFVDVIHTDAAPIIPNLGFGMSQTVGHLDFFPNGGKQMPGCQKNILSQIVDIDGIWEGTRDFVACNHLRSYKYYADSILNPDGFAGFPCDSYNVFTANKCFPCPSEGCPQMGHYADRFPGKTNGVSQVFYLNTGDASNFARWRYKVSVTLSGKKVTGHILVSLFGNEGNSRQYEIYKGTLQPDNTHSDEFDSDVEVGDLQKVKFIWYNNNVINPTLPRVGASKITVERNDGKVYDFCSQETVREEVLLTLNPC
Answers are plain numbers, as −log10 of the molar value.

CC(C)=CCC/C(C)=C/Cc1cc([C@@H]2CC(=O)c3c(O)cc(O)cc3O2)ccc1O [Compound 4, propolin H (3′-geranyl-naringenin)]	4.48
CC(C)=CCC/C(C)=C/Cc1c([C@@H]2CC(=O)c3c(cc(O)c(CC=C(C)C)c3O)O2)ccc(O)c1O [Compound 5, propolin G (Nymphaeol C)]	4.36

Consider the additional compound presented here.
Consider the compound CC(C)=CCC/C(C)=C/Cc1c(O)cc2c(c1O)C(=O)C[C@@H](c1ccc(O)c(O)c1)O2 [Compound 3, propolin C (Nymphaeol A)] and give its measured pIC50.
4.52
